System: HDQ-P1
Test: normalised viability (% of control), CellTiter-Blue; higher = more viable cells (about 100 = DMSO control)
Conditions: 3000 nM; incubation time: 72 h
Readout Kind: normalised viability

In [3]: df
Out[3]:
                                   compound          readout_kind  assay_result
0  CN(C)CCN1C(=O)c2cccc3cc(N)cc(c23)C1=O [Amonafide]  normalised viability         79.6%
1  CC(C)(C#N)c1cc(Cn2cncn2)cc(C(C)(C)C#N)c1  normalised viability         85.3%
2  COc1ccc(-c2ccc3c(N4CCOC[C@@H]4C)nc(N4CCOC[C@@H]4C)nc3n2)cc1CO  normalised viability         21.8%
3                 CNNCc1ccc(C(=O)NC(C)C)cc1  normalised viability          127%
4  Cn1cncc1[C@@](N)(c1ccc(Cl)cc1)c1ccc2c(c1)c(-c1cccc(Cl)c1)cc(=O)n2C  normalised viability         66.8%
5            O=C(O)CCCc1ccc(N(CCCl)CCCl)cc1  normalised viability          107%

====

System: HCC1937
Experiment: normalised response (% of control), CellTox Green; higher = less cell death (100 = DMSO, 0 = benzethonium chloride kill control)
Conditions: incubation time: 72 h
Readout Kind: normalised response (%)

Compound	Assay Result
Cc1ccc(NC(=O)c2ccc(CN3CCN(C)CC3)cc2)cc1Nc1nccc(-c2cccnc2)n1 [Imatinib] (100 nM)	112
O=C1NC(=O)[C@@H](c2cn3c4c(cccc24)CCC3)[C@@H]1c1c[nH]c2ccccc12 [Tivantinib] (1000 nM)	84.5
COc1ccccc1S(=O)(=O)Nc1ccc2c(c1)CN(C)C(=O)N2 [PFI-1] (1000 nM)	91.9
COc1ccc(-c2ccc3c(N4CCOC[C@@H]4C)nc(N4CCOC[C@@H]4C)nc3n2)cc1CO [AZD8055] (100 nM)	97.7
CO[C@H]1C[C@@H]2CC[C@@H](C)[C@@](O)(O2)C(=O)C(=O)N2CCCC[C@H]2C(=O)O[C@H]([C@H](C)C[C@@H]2CC[C@@H](OCCO)[C@H](OC)C2)CC(=O)[C@H](C)/C=C(\C)[C@@H](O)[C@@H](OC)C(=O)[C@H](C)C[C@H](C)/C=C/C=C/C=C/1C [Everolimus] (10 nM)	114
c1ccc([C@H]2CN3CCSC3=N2)cc1 [Levamisole] (100 nM)	76.8

====

normalised response listing for selected compounds.
Tested on: MDA-MB-468
Test: normalised response (% of control), CellTiter-Glo; higher = more viable cells (100 = DMSO, 0 = benzethonium chloride kill control)
Conditions: incubation time: 72 h

Compound	normalised response / %
Cn1cncc1[C@@](N)(c1ccc(Cl)cc1)c1ccc2c(c1)c(-c1cccc(Cl)c1)cc(=O)n2C [Tipifarnib] (1000 nM)	74.9
CO[C@H]1C[C@@H]2CC[C@@H](C)[C@@](O)(O2)C(=O)C(=O)N2CCCC[C@H]2C(=O)O[C@H]([C@H](C)C[C@@H]2CC[C@@H](OCCO)[C@H](OC)C2)CC(=O)[C@H](C)/C=C(\C)[C@@H](O)[C@@H](OC)C(=O)[C@H](C)C[C@H](C)/C=C/C=C/C=C/1C [Everolimus] (0.01 nM)	105
COc1ccccc1S(=O)(=O)Nc1ccc2c(c1)CN(C)C(=O)N2 [PFI-1] (1 nM)	90.8

meta.source: the supplement of paper PMC4862054
